- METHOD: CCTE_Simmons_CellTiterGLO_HEK293T: Viability Assessment in CCTE's Assays for Thyroperoxidase (TPO) Inhibition, Simmons Lab (AID 2283665)
Results filed as inconclusive are left out. Activity calls are given as the source filed them. Rule for the calls: active = hit-call score of the fitted dose curve at least 0.9, where 1 is the maximum; inconclusive = response in the unintended direction; inactive = score below 0.9.
Labels: t for active, f for inactive

COMPOUND	CATEGORY
COc1ccc(C(=O)c2ccccc2)c(O)c1	f
CCCCCCCCCC[N+](C)(CCCCCCCCCC)CCC[Si](OC)(OC)OC	t
COC(=O)c1ccccc1C	f
C/C=C/C=C/CCCCCCCO	t
CCCCC1C(=O)N(c2ccccc2)N(c2ccccc2)C1=O	f
CN(C)c1ccc2nc3ccc(=[N+](C)C)cc-3sc2c1	t
O=S(=O)(O)c1ccc(N=Nc2c(O)ccc3ccccc23)cc1	t
CCCCCCCOC(=O)c1ccc(O)cc1	t
CCCCC/C=C\C/C=C\CCCCCCCC(=O)O	t
CC(C)c1ccc(O)c(C(C)C)c1	t
CC1=NN(c2ccc(S(=O)(=O)O)cc2)C(=O)C1N=Nc1ccccc1 (stereo unspecified)	f

* * *

- SYSTEM UNDER TEST: X-box-binding protein 1 (Homo sapiens) (UniProt P17861)
- Sequence (P17861 whole entry, looked up): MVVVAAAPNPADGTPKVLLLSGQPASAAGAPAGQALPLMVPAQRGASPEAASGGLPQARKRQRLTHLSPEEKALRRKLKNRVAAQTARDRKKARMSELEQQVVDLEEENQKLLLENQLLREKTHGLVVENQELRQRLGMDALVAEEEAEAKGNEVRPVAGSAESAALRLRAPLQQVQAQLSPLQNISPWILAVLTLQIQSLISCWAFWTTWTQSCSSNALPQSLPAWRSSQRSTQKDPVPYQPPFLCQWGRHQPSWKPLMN
- METHOD: ATG_Xbp1_CIS: Attagene CIS-FACTORIAL HepG2 Assay for human X-box Binding Protein 1 (XBP1) (AID 2282972)
- CONDITION DESCRIPTION: HepG2 XBP1 cis-element reporter, Attagene multiplex; actives raise or lower the signal
- Method: ATG_CIS is a cell-based, multiplexed-readout assay that uses HepG2, a human liver cell line, with measurements taken at 24 hours after chemical dosing in a 24-well plate.ATG_Xbp1_CIS is one of 52 assay component(s) measured or calculated from the ATG_CIS assay. […] This assay endpoint, ATG_Xbp1_CIS, was analyzed with bidirectional fitting relative to DMSO as the negative control and baseline of activity. […]
The source made the active and inactive calls. The calls were made as follows: active = hit-call score of the fitted dose curve at least 0.9, where 1 is the maximum; inactive = score below 0.9. Peptide text beside a SMILES is read from it.
Possible outcomes: true for active, false for inactive

MOLECULE	CATEGORY
CC(C)(C)NC(=O)[C@H]1CC[C@H]2[C@@H]3CC[C@H]4NC(=O)C=C[C@]4(C)[C@H]3CC[C@]12C	false
CCCCC(=O)O	false
Oc1ccccc1Cc1ccccc1O	true
CC=CC(=O)OCC(C)C	false
Cc1c(O)cccc1O	false
CC(C)(c1ccccc1)c1ccc(Nc2ccc(C(C)(C)c3ccccc3)cc2)cc1	false
CC(C)c1cc(C(C)C)cc(C(C)C)c1	false
CCc1cccc(C)c1N	false
c1ccc(Nc2cccc3ccccc23)cc1	true
O=C1CCCN1C1CCCCC1	false
COC(=O)[C@H](Cc1ccccc1)NC(=O)[C@@H](N)CC(=O)O (H-Asp-Phe-OMe)	false
CC1=CCC(C(C)C)C=C1 (centres undefined)	false
CC(Cl)COP(=O)(OCC(C)Cl)OCC(C)Cl (centres undefined)	false
CC1=CCC2CC1C2(C)C (centres undefined)	false

* * *

- METHOD: ATG_TCF_b_cat_CIS: Attagene CIS-FACTORIAL HepG2 Assay for human T-Cell-Factor with beta-catenin (TCF/b-cat) (AID 2282965)
- CONDITION DESCRIPTION: HepG2 TCF/beta-catenin cis-reporter transcription, actives raise or lower the signal
Calls of active or inactive are those of the source. How the source made its calls: active means hit-call score of the fitted dose curve at least 0.9, where 1 is the maximum; inactive means score below 0.9.
Classes used: active, inactive

MOLECULE	CATEGORY
CCCC1CCCC(=O)O1 (stereo not drawn)	inactive
CC(C)(CO)C(O)C(=O)NCCCO (stereo not drawn)	inactive
Nc1ncnc2nc[nH]c12	inactive
N#Cc1ccc(C2CCCc3cncn32)cc1 (stereo not drawn)	inactive
CC(=O)OCc1ccccc1	inactive
CC(C)C(=O)OCCc1ccccc1	inactive
Cc1cc(=O)[nH]c(=O)[nH]1	inactive
Cn1ccnc1	inactive
O=C(Cl)c1ccc(C(=O)Cl)cc1	inactive
CC=C(C)C=CC=C(C)C	inactive
Fc1ccc(Br)cc1	inactive
CC1CCC(C(C)(C)S)C(=O)C1 (stereo not drawn)	inactive
Oc1ccccc1Cc1ccccc1O	active
CCCCCOC(=O)CCCCC	inactive
CC=CC(=O)OCC(C)C	inactive
CCC(C)(O)CCCC(C)C (stereo not drawn)	inactive
Cc1cc(C)c(C=O)c(C)c1	inactive
O=c1c(O)c(-c2ccc(O)cc2O)oc2cc(O)cc(O)c12	inactive
COC(C=C(C)CCC=C(C)C)OC	inactive
COc1cc(O)c(C(=O)c2ccccc2)cc1S(=O)(=O)O	inactive
CCC(C)C(=O)OCCc1ccccc1 (stereo not drawn)	inactive
Nc1ccc(C(=O)OCCCOC(=O)c2ccc(N)cc2)cc1	inactive
Cc1noc(NS(=O)(=O)c2ccc(N)cc2)c1C	inactive
CC(=O)OC1CCCCC1C(C)(C)C (stereo not drawn)	inactive
CC(=O)CCC1=C(C)CCCC1(C)C	inactive
CCCCNS(=O)(=O)c1ccccc1	inactive
CC1=CCC2CC1C2(C)C (stereo not drawn)	inactive
Cc1ccccc1CCO	inactive
COc1cc(C)ccc1O	inactive
CC1OC(=O)C(C)OC1=O (stereo not drawn)	inactive
C=CC(C)(CCC=C(C)C)OC(=O)C=Cc1ccccc1 (stereo not drawn)	inactive
C=Cc1cccc(C)c1	inactive
CCCCCCCCCCCC(=O)N(C)CC(=O)O	inactive

* * *

- METHOD: TOX21_p53_BLA_p5_viability: Viability Assessment in the Tox21 HCT-116 p53 Agonism Beta-lactamase Assay, Phase 5 (AID 2283600)
- Excerpt: TOX21_p53_BLA_p5 is a cell-based, single-readout assay that uses HCT116, a human intestinal cell line, […] in a 1536-well plate.TOX21_p53_BLA_p5_viability is an assay readout measuring cellular ATP content and detected with CellTiter-Glo Luciferase-coupled ATP quantitation.TOX21_p53_BLA_p5_viability used a type of viability reporter where loss-of-signal activity can be used to understand changes in the cell viability. […]
Results filed as inconclusive are left out. The source made the active and inactive calls. How the source made its calls: active means hit-call score of the fitted dose curve at least 0.9, where 1 is the maximum; inconclusive means response in the unintended direction; inactive means score below 0.9.
Possible outcomes: True (active), False (inactive)

COMPOUND	CATEGORY
CCOC(=O)/C=C\C(=O)OCC	False
O=C(Nc1ccccc1)c1cc(Cl)ccc1O	False
CC(C)CC(=O)OCc1ccccc1	False
CO[Si](CCCS)(OC)OC	False
COc1ccc(C(=O)c2ccccc2)c(O)c1	False
CC(=O)OC/C=C(/C)CCC=C(C)C	False
O=C1CCCCCCCCCCCN1	False
NNS(=O)(=O)c1ccc(Oc2ccc(S(=O)(=O)NN)cc2)cc1	False
Clc1cc(Cl)c(Cl)c(Cl)c1Cl	False
CCCCC1C(=O)N(c2ccccc2)N(c2ccccc2)C1=O	False
CC(C)CCCCCOC(=O)CS	False
CC1C(C)(C)C2=C(C(=O)CCC2)C1(C)C (stereo not drawn)	False
CCCCCCCCCCCCCCCCCCOS(=O)(=O)O	False
O=C(O)/C=C/c1ccccc1	False
COC(=O)CC(C)CCC=C(C)C (stereo not drawn)	False
CN(C)c1ccc2nc3ccc(=[N+](C)C)cc-3sc2c1	False
C=CCCCCCCCCO	False
CCCCCCCCCCCCc1ccc(O)cc1	True

* * *

- Read-out: Interleukin-6 (IL6), IL6 (gene 3569)
- METHOD: BSK_CASM3C_IL6: BioMAP Diversity Plus: CASM3C Assay for Interleukin-6 (IL6) Biomarker Activity for (AID 2283040)
- CONDITION DESCRIPTION: primary human coronary artery smooth muscle cells; actives raise or lower the signal
Activity calls are given as the source filed them. How the source made its calls: active means hit-call score of the fitted dose curve at least 0.9, where 1 is the maximum; inactive means score below 0.9.
Outcomes: true (1) (active), false (0) (inactive)

SMILES NOTATION	CATEGORY
Oc1ccccc1Cc1ccccc1O	false (0)
CCCCCCC=O	false (0)
Cc1ccc([N+](=O)[O-])cc1N	false (0)
c1ccc2c(c1)[nH]c1ccccc12	false (0)
Oc1ccc(/C=C/c2cc(O)cc(O)c2)cc1	true (1)
CC(C)C(=O)OCCc1ccccc1	false (0)
COc1ccc(C(=O)c2ccccc2)c(O)c1	false (0)

* * *

- METHOD: ATG_ERE_CIS: Attagene CIS-FACTORIAL HepG2 Assay for Estrogen Response Element (ERE) (AID 2282940)
- CONDITION DESCRIPTION: HepG2 ERE cis-reporter, Attagene RNA transcript; actives raise or lower the signal
Activity calls are given as the source filed them. The calls were made as follows: active = hit-call score of the fitted dose curve at least 0.9, where 1 is the maximum; inactive = score below 0.9.
Outcome codes: active, inactive

SMILES NOTATION	CATEGORY
CCCCCCCC(=O)OCC	inactive
O=C(C=Cc1ccccc1)OCCc1ccccc1	active
CC(C)C(=O)OCCOc1ccccc1	inactive
C1CCSC1	inactive
CCN1CCCC1=O	inactive
O=C(O)c1ccc2c(c1)C(=O)OC2=O	inactive
CC(=O)CC(=O)Nc1ccccc1C	inactive
CCCC=C(C=O)CC	inactive
C=CCCCCCCCCOC(C)=O	inactive
C=C[C@@]1(C)CC(=O)[C@]2(O)[C@@]3(C)[C@@H](O)CCC(C)(C)[C@@H]3[C@H](O)[C@H](OC(C)=O)[C@@]2(C)O1	active
CCCCCCOC(=O)CCCCC(=O)OCCCCCC	active
CCCCCCCCCC(C)=O	inactive
Cn1ccnc1	inactive
c1ccc2cnccc2c1	inactive
CC(C)c1ccc(O)c(C(C)C)c1	active
